These data points were gathered from PubChem BioAssay (NCI).

experiment: NCI Yeast Anticancer Drug Screen. Data for the mec2-1 strain (AID 157); conditions: S. cerevisiae mec2-1 strain, at 50.0 µM, active compounds read high
The panel holds about 79,000 compounds, 15% with a hit somewhere; the sample as a whole holds those more often.

{"compound": "CN(C)CCNc1ncnc2nc(-c3ccc4ccccc4c3)[nH]c12", "growth inhibition / %": -20.9}
{"compound": "CC(=O)N1CC(C)(C)c2c(C)c(O)c(C)c(C)c21", "growth inhibition / %": -22.3}
{"compound": "O=C(c1ccncc1)n1nc(-c2ccccc2)c(N=Nc2ccccc2[N+](=O)[O-])c1-c1ccccc1", "growth inhibition / %": -16.8}
{"compound": "O=[N+]([O-])c1cccc(N=Cc2ccccc2)c1", "growth inhibition / %": 12.9}
{"compound": "CC(C)C(=O)OC1CCCCC1Cc1ccccn1 (centres undefined)", "growth inhibition / %": -3.25}
{"compound": "Nc1cccc2ccc(Cl)nc12", "growth inhibition / %": 19.4}
{"compound": "O=C(CC(=O)N1N=C(N(c2ccccc2)c2ccccc2)CC1c1ccccc1)Nc1ccccc1 (centres undefined)", "growth inhibition / %": 6.4}
{"compound": "CC(=O)NC1(C)C(C)C2CC1C(C)C2(C)C (centres undefined)", "growth inhibition / %": -13.8}
{"compound": "CC(C)(C)OC(=O)C1C(=O)CC(c2ccccc2)C1c1ccccc1 (centres undefined)", "growth inhibition / %": -3}

###

test: NCI Yeast Anticancer Drug Screen. Data for the bub3 strain (AID 167); details: S. cerevisiae bub3 mutant strain, at 50.0 µM, active compounds read high
About 79,000 compounds went through this panel and 15% of them were active in at least one assay; those are over-represented in the sample as a whole.

{"compound": "Clc1ccc(/C=C/c2ccc3ccccc3n2)cc1", "units text": "%", "growth inhibition": -14}
{"compound": "O=C(OC1COC(n2c(=O)oc3ccc(Cl)cc32)C(OC(=O)c2ccccc2)C1OC(=O)c1ccccc1)c1ccccc1 (centres undefined)", "units text": "%", "growth inhibition": -1.1}
{"compound": "COc1ccc(Cl)cc1NC(=O)O/N=C(\\Cl)C(C)C", "units text": "%", "growth inhibition": 24.9}
{"compound": "CN/C=C(/OCc1ccccc1)c1ccc(O)c(O)c1", "units text": "%", "growth inhibition": -19.7}
{"compound": "O=C(O)CNC(=O)CNC(=O)CNC(=O)CNC(=O)CNC(=O)OCc1ccccc1", "units text": "%", "growth inhibition": -0.95}
{"compound": "CCCCN=C=C(c1ccccc1)c1ccccc1", "units text": "%", "growth inhibition": -7.75}
{"compound": "COc1ccc(CC2(Cc3ccc(OC)cc3)CCOC2=O)cc1", "units text": "%", "growth inhibition": 2.25}
{"compound": "CCOC(=O)C(C)Oc1ccc(Cl)cc1 (centres undefined)", "units text": "%", "growth inhibition": -6.3}
{"compound": "COc1ccc(CCNC(=S)NCCc2ccc(OC)cc2)cc1", "units text": "%", "growth inhibition": -7.25}

###

growth inhibition overview
experiment: NCI Yeast Anticancer Drug Screen. Data for the rad50 strain (AID 155);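 note: 0% = growth of vehicle-only cultures of the same strain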; details: S. cerevisiae rad50 strain growth inhibition; at 50.0 µM; active compounds read high
The panel holds about 79,000 compounds, 15% with a hit somewhere; the sample as a whole holds those more often.
recorded endpoint: growth inhibition (%)

{"compound": "CC1CCCN2C(=O)CN(Cc3ccccc3)CC(=O)N12 (centres undefined)", "observed result": 9.85}
{"compound": "Cc1nn(C)c(C#N)c1[N+](=O)[O-]", "observed result": -7.05}
{"compound": "Nc1cccc(Br)n1", "observed result": 16.1}
{"compound": "N=C(N)N1CCc2ccccc2C1", "observed result": -5.55}

###

assay: NCI Yeast Anticancer Drug Screen. Data for the mec2-1 strain (AID 157); details: S. cerevisiae mec2-1 strain, at 50.0 µM, active compounds read high
Compounds without any hit were thinned out: in the full panel of roughly 79,000, 15% have a hit.
Record label 1 whenever growth inhibition is at -10% or higher; record label 0 when lower.

{"compound": "O/N=C(\\CC(O)(C(F)(F)F)C(F)(F)F)c1cccs1", "assigned class": "label 1"}
{"compound": "CC(C)(C)C(C)(C)CC(N)=O", "assigned class": "label 0"}
{"compound": "COc1cccc(NC(=S)Nn2c(C)nc3ccccc3c2=O)c1", "assigned class": "label 0"}
{"compound": "C=CCN(C)C(=O)CCCCCCCC1C(CCCCCCCC)C2(Cl)C(Cl)=C(Cl)C1(Cl)C2(Cl)Cl (stereo unspecified)", "assigned class": "label 1"}
{"compound": "O=C(OCCN=c1c2ccccc2ccc2ccccc12)c1cc([N+](=O)[O-])cc([N+](=O)[O-])c1", "assigned class": "label 1"}

###

growth inhibition overview
Test: NCI Yeast Anticancer Drug Screen. Data for the bub3 strain (AID 167)
Conditions: S. cerevisiae bub3 mutant strain, at 50.0 µM, active compounds read high
Experimental: Growth inhibition of yeast strains with defined genetic alterations is measured as a screen for potential anti-cancer activity. Selected strains with alterations in DNA damage repair or cell cycle control were exposed to compounds and growth inhibition was measured relative to vehicle treated controls. The strain used in this assay is bub3
About 79,000 compounds went through this panel and 15% of them were active in at least one assay; those are over-represented in the sample as a whole.
recorded endpoint: growth inhibition (%)

{"compound": "Cc1ccc(S(=O)(=O)N/N=C(\\C(=N/OCc2ccccc2)c2ccccc2)c2ccccc2)cc1", "recorded endpoint": "growth inhibition", "units text": "%", "observed result": 10.8}
{"compound": "CCN(CC)C(=S)SCCO", "recorded endpoint": "growth inhibition", "units text": "%", "observed result": -3.5}
{"compound": "COC(=O)c1sc2ccccc2c1C", "recorded endpoint": "growth inhibition", "units text": "%", "observed result": -17.8}
{"compound": "CC1CN(C(=S)Nc2cccc3ccccc23)CC(C)O1 (centres undefined)", "recorded endpoint": "growth inhibition", "units text": "%", "observed result": 44.8}

###

growth inhibition overview
experiment: NCI Yeast Anticancer Drug Screen. Data for the sgs1 mgt1 strain (AID 161);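 note: 0% = growth of cultures given vehicle only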; settings: S. cerevisiae sgs1 mgt1 strain, at 50.0 µM, active compounds read high
Compounds without any hit were thinned out: in the full panel of roughly 79,000, 15% have a hit. Where a SMILES comes first, the peptide text is derived from it. Bridges are numbered along the chain shown (N, C = ends). Roman numbers before positions name the chains, in order.

{"compound": "COC(=O)c1c2c(C)ccc(C)c2nc2c(C)ccc(C)c12", "growth inhibition (%)": -2.05}
{"compound": "NC(=O)/C(=C(/O)C(=O)O)c1ccnc2ccccc12", "growth inhibition (%)": 7.35}
{"compound": "O=C(CC1(O)C(=O)Nc2ccc(Br)cc21)c1ccc(Cl)cc1Cl (stereo unspecified)", "growth inhibition (%)": 69}
{"compound": "CC(=O)N=Cc1ccccc1O", "growth inhibition (%)": -50.2}
{"compound": "NCCN1CCOCC1", "growth inhibition (%)": -11.9}
{"compound": "CCCCCC(=O)C(CCCC)C(=O)OCC (stereo unspecified)", "growth inhibition (%)": -25.2}
{"compound": "CCOc1ccc(N=Nc2c(O)n(-c3ccc(Br)cc3)c(=S)n(-c3ccc(OC)cc3)c2=O)cc1", "growth inhibition (%)": -9.1}
{"compound": "CC(C)CC(NC(=O)C(N)CSSCC(N)C(=O)NC(CC(C)C)C(=O)O)C(=O)O (stereo not drawn) (I: H-Cys-Leu-OH / II: H-Cys-Leu-OH; disulfide I:1-II:1; configuration not given here)", "growth inhibition (%)": -9.8}
{"compound": "S=C(Cc1ccccc1)Nc1ccccc1", "growth inhibition (%)": 14.1}
{"compound": "Cc1ccc(S(=O)(=O)OC(CI)C2OC(c3ccccc3)OC3COC(c4ccccc4)OC32)cc1 (stereo unspecified)", "growth inhibition (%)": 7.7}
{"compound": "Cn1c(N(CCO)CCO)cnc1[N+](=O)[O-]", "growth inhibition (%)": -21.8}

###

assay: NCI Yeast Anticancer Drug Screen. Data for the cln2 rad14 strain (AID 165);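 note: 0% = growth equal to vehicle treated cultures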; details: S. cerevisiae cln2 rad14 strain, at 50.0 µM, active compounds read high
The panel holds about 79,000 compounds, 15% with a hit somewhere; the sample as a whole holds those more often.
growth inhibition overview

{"molecule": "Nc1cc(=O)n(-c2ccccc2)[nH]1", "growth inhibition [%]": -19.9}
{"molecule": "CSc1nc(N)c(N)c(N)n1", "growth inhibition [%]": -21.8}
{"molecule": "COc1cc(C)n2nnnc2n1", "growth inhibition [%]": -15.8}
{"molecule": "Nc1[nH][nH]c(=O)c1N=Nc1ccccc1", "growth inhibition [%]": -6.6}
{"molecule": "Fc1ccccc1N=Cc1ccc(C=Nc2ccccc2F)cc1", "growth inhibition [%]": 21.3}
{"molecule": "O=C(O)C1Cc2c([nH]c3ccccc23)C(c2cccs2)N1 (stereo not given)", "growth inhibition [%]": 0.5}
{"molecule": "Clc1ccc2c(c1)N(C1CCCN(Cc3ccccc3)C1)c1ccccc1S2 (stereo not given)", "growth inhibition [%]": 25.8}
{"molecule": "C/C(CCn1[nH]c(=O)ccc1=O)=N\\N=C(N)N", "growth inhibition [%]": -4.85}
{"molecule": "C=CCSc1ncnc2nc[nH]c12", "growth inhibition [%]": -3.15}
{"molecule": "CCCCCCC(=O)/C=C/c1cccc(OCc2ccccc2)c1", "growth inhibition [%]": 13.6}
{"molecule": "CC1OC(c2ccccc2Cl)OC1C (stereo not given)", "growth inhibition [%]": -8.5}
{"molecule": "COc1ccc(Cl)cc1NC(=O)O/N=C(\\Cl)C(C)C", "growth inhibition [%]": 16.2}
{"molecule": "COc1ccc([N+](=O)[O-])c(OC)c1", "growth inhibition [%]": 17.2}
{"molecule": "CC(=O)OCc1ccc([N+](=O)[O-])cc1", "growth inhibition [%]": 8.05}
{"molecule": "c1ccc2c(CCNC3=NCCO3)cccc2c1", "growth inhibition [%]": -7.5}
{"molecule": "CC(=O)OC1COC(NC(=O)N(CCCl)N=O)C(OC(C)=O)C1OC(C)=O (stereo not given)", "growth inhibition [%]": -11.2}
{"molecule": "O=C(NCN1CCOCC1)Nc1ccccc1", "growth inhibition [%]": -24.2}
{"molecule": "CCOC(=O)C1CCC(=O)C(CC)=C1C (stereo not given)", "growth inhibition [%]": -1.85}
{"molecule": "NOCCCCON", "growth inhibition [%]": -66.8}
{"molecule": "CC(C)OC(CCC#N)c1ccccc1 (stereo not given)", "growth inhibition [%]": -8.3}
